// provenance: patent US10472336B2

molecular target: indoleamine 2, 3-dioxygenase (IDO1) (Homo sapiens); assay: PBMC IDOi assay (kynurenine detection by mass spectrometry); assay type: cell-based; conditions: IFN-γ and LPS stimulated human PBMC, 2 days
quantity: EC50 (nM)

(I) CC(C)CN(CC(C)C)c1ccc(C(C)CC(=O)O)cc1Nc1cnccn1 (centres unmarked) [Example 58]
(II) CC(C)CN(CC(C)C)c1ccc([C@@H](C)CC(=O)O)cc1Nc1nc(C(F)(F)F)ns1 [Example 53]
### Prompt Which shows the larger EC50 value: I or II ? Mark your answer with the label of the selected entry.
### Response I
(I: 158 nM, II: 3.16 nM)

(a) CC(C)CN(c1ccc([C@H](C)CC(=O)O)cc1Nc1nc(C(F)(F)F)ns1)C1CCCCC1 [Example 38]
(b) CC(C)CN(c1ccc(C(C)CC(=O)O)cc1NC1=N[C@H](C(F)(F)F)CS1)C1CCCCC1 (some centres unmarked) [Example 75]
(c) CC(C)CN(CC(C)C)c1ccc([C@H](C)CC(=O)O)cc1Nc1nc(Cl)ns1 [Example 42]
(d) Cc1ccccc1CNc1cc(C(C)CC(=O)O)ccc1N(CC(C)C)C1CCCCC1 (centres unmarked) [Example 23]
### Prompt With regard to EC50, arrange the entries in ascending order, please. Please list each label once, in the requested order.
### Response a, c, b, d

(I) CC(C)CN(c1ccc(C(C)CC(=O)O)cc1NC1CCCCC1)C1CCCCC1 (centres unmarked) [Example 19]
(II) CC(C)CN(CC(C)C)c1ccc(C(C)CC(=O)O)cc1Nc1cnc(C2CC2)s1 (centres unmarked) [Example 61]
### Prompt Between I and II , whose recorded EC50 is greater? Selection: enter the item's label.
### Response I
(I: 50.1 nM, II: 31.6 nM)

---

target: indoleamine 2, 3-dioxygenase (IDO1) (Homo sapiens); experiment: PBMC IDOi assay (kynurenine detection by mass spectrometry); format: cell-based; conditions: IFN-γ and LPS stimulated human PBMC, 2 days
quantity: EC50 (nM)

# example entries with known answers
{"compound": "CC(C)CN(c1ccc(C(C)CC(=O)O)cc1NCc1cncs1)C1CCCCC1 (stereo not shown) [Example 22]", "system": "indoleamine 2, 3-dioxygenase (IDO1) (Homo sapiens)", "reported": 100}
{"compound": "CC(C)CN(c1ccc([C@H](C)CC(=O)O)cc1NC1CCCCC1)C1CCCCC1 [Example 64]", "system": "indoleamine 2, 3-dioxygenase (IDO1) (Homo sapiens)", "reported": 63.1}

(1) CC(C)CN(c1ccc([C@@H](C)CC(=O)O)cc1Nc1nnc(C2CC2)s1)C1CCCCC1 [Example 57]
(2) CC(C)CN(c1ccc([C@@H](C)CC(=O)O)cc1Nc1ccnc(Cl)n1)C1CCCCC1 [Example 62]
### Prompt Higher EC50: 1 or 2 ? Returns: label corresponding to the selected item.
### Response 2

---

target: indoleamine 2, 3-dioxygenase (IDO1) (Homo sapiens, UniProt P14902); experiment: HeLa IDOi assay (kynurenine detection by mass spectrometry); assay type: cell-based; set-up: human epithelial HeLa cells (CCL-2; host or cells: HeLa cells stimulated with human IFN-γ; conditions: IFN-γ stimulated human epithelial HeLa cells, 2 days
Sequence (P14902 whole entry): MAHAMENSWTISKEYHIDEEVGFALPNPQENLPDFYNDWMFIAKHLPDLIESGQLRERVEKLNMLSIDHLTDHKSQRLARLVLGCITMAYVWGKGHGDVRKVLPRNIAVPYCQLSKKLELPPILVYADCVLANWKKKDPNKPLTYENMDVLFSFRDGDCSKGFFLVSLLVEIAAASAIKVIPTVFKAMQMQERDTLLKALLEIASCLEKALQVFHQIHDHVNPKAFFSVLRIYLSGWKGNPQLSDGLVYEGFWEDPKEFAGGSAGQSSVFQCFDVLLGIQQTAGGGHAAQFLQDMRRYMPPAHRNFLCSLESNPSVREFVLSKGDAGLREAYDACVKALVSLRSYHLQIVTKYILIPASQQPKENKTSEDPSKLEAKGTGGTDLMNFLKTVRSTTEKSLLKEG
pEC50: −log10 of the molar value.
quantity: pEC50

Solved cases (5 shown):
{"compound": "Cc1nsc(Nc2cc(C(C)CC(=O)O)ccc2N(CC(C)C)CC(C)C)n1 (centres unmarked) [Example 31]", "system": "indoleamine 2, 3-dioxygenase (IDO1) (Homo sapiens, UniProt P14902)", "quantity": "pEC50", "reported": 7.10}
{"compound": "Cc1nc(Nc2cc(C(C)CC(=O)O)ccc2N(CC(C)C)CC(C)C)sc1C (centres unmarked) [Example 43]", "system": "indoleamine 2, 3-dioxygenase (IDO1) (Homo sapiens, UniProt P14902)", "quantity": "pEC50", "reported": 6.50}
{"compound": "CC(C)CN(CC(C)C)c1ccc(C(C)CC(=O)O)cc1Nc1cnc(C2CC2)s1 (centres unmarked) [Example 61]", "system": "indoleamine 2, 3-dioxygenase (IDO1) (Homo sapiens, UniProt P14902)", "quantity": "pEC50", "reported": 7.20}
{"compound": "CC(C)CN(c1ccc(C(C)CC(=O)O)cc1NCc1nccs1)C1CCCCC1 (centres unmarked) [Example 21]", "system": "indoleamine 2, 3-dioxygenase (IDO1) (Homo sapiens, UniProt P14902)", "quantity": "pEC50", "reported": 6.30}
{"compound": "CC(C)CN(c1ccc([C@@H](C)CC(=O)O)cc1Nc1ccnc(Cl)n1)C1CCCCC1 [Example 62]", "system": "indoleamine 2, 3-dioxygenase (IDO1) (Homo sapiens, UniProt P14902)", "quantity": "pEC50", "reported": 8.40}

(a) CC(C)CN(CC(C)C)c1ccc([C@@H](C)CC(=O)O)cc1Nc1nc(C(F)(F)F)ns1 [Example 53]
(b) CC(C)CN(c1ccc(C(C)CC(=O)O)cc1Nc1nc(Cl)ns1)C1CCCCC1 (centres unmarked) [Example 7]
(c) Cc1nnc(Nc2cc(C(C)CC(=O)O)ccc2N(CC(C)C)CC(C)C)[nH]1 (centres unmarked) [Example 47]
### Prompt Order the 3 compounds from highest to lowest pEC50. List the labels in the requested order.
### Response b, a, c

(1) CC(C)CN(c1ccc([C@H](C)CC(=O)O)cc1Nc1nc(C(F)(F)F)cs1)C1CCCCC1 [Example 49]
(2) CC(C)CN(c1ccc(C(C)CC(=O)O)cc1NCc1cncs1)C1CCCCC1 (centres unmarked) [Example 22]
### Prompt 1 or 2 : whose pEC50 is greater? Output the label that corresponds to your choice.
### Response 1
(1: 8.50, 2: 6.70)
